- TARGET: CB1 receptor (Mus musculus)
- Construct: crude membranes from mouse brain for CB1 receptor; from tissue; host or cells: mouse brain membranes (crude / P2)
- Sequence (P47746 whole entry): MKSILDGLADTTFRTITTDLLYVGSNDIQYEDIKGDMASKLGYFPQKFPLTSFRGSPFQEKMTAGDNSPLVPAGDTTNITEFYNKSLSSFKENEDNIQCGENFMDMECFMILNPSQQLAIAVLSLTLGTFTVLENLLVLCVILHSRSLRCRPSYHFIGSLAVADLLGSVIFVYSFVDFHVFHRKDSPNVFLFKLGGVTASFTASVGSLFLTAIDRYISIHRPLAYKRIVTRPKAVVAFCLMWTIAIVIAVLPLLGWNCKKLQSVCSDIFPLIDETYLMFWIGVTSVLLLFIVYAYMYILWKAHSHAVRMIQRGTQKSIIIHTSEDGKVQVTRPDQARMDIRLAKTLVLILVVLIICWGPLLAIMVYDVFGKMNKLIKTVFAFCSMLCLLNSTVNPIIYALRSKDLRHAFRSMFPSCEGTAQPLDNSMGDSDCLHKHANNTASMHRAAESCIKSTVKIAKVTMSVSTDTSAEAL
- METHOD_SUMMARY: [3H]CP-55,940 radioligand displacement assay
- Type: binding
- PROTOCOL_CONDITIONS: [3H]CP-55,940; crude membranes from mouse brain; range of Ki values (FIGS. 12-14); read-out: Ki values varying for each substance, ranging from
pKi: −log10 of the molar value.
PARAMETER_MEASURED: pKi

Entry COC1=C(OC)C(=O)C(CCCCCCCCCCOC(=O)c2nn(-c3ccc(Cl)cc3Cl)c(-c3ccc(Cl)cc3)c2C)=C(C)C1=O [IDB] ; pKi = 6.87 to 8.72
